# System: Mtb PDH (Lpd+DlaT+AceE) (Mycobacterium tuberculosis (strain ATCC 25618 / H37Rv))
# Protocol details: PDH Inhibition Activity
# Assay type: biochemical
So I've got a bunch of compounds here, and I need their IC50 values.

{"Mol": "Cn1nc(-c2ccc(F)cc2)nc2c(=O)n(C)c(=O)nc1-2", "IC50": "< 40 nM"}
{"Mol": "N#Cc1c(NC(=O)c2ccc(Cl)c([N+](=O)[O-])c2)n(Cc2ccccc2)c2nc3ccccc3nc12", "IC50": "> 5000 nM"}
{"Mol": "CCn1nc(-c2ccccc2)nc2c(=O)n(C)c(=O)nc1-2", "IC50": "< 40 nM"}
{"Mol": "Cc1ccc(-c2nc3c(=O)n(C)c(=O)nc-3n(C)n2)cc1", "IC50": "< 40 nM"}
{"Mol": "CCn1nc(-c2cccnc2)nc2c(=O)n(C)c(=O)nc1-2", "IC50": "< 40 nM"}
{"Mol": "O=C1C(=O)c2nn(-c3ccccc3)nc2-c2ccccc21", "IC50": "< 40 nM"}

Take each entry in turn and give its IC50.
1. Cn1nc(-c2ccc(Cl)cc2)nc2c(=O)n(C)c(=O)nc1-2
2. Cn1nc(-c2ccc(Cl)c(Cl)c2)nc2c(=O)n(C)c(=O)nc1-2
3. CCCCCn1c(NC(=O)c2ccc(Br)o2)c(C#N)c2nc3ccccc3nc21

Marked response:
1. < 40 nM
2. < 40 nM
3. > 5000 nM

---

# System: lipoamide dehydrogenase (Lpd) (Mycobacterium tuberculosis (strain ATCC 25618 / H37Rv))
# Protocol details: Lipoamide Dehydrogenase (Lpd) Inhibition Assay
# Assay type: biochemical
# Measurement context: concentration required for 50% inhibition of LPD activity; DTNB detection, OD405 nm
Recorded endpoint: pIC50
One number for each entry, as −log10 of the molar value.

These recorded examples may help you get a feel for the data.
{"Molecule": "Cc1cc(NC(=O)C2CCN(S(=O)(=O)c3cn(C(C)C)cn3)CC2)ccc1Br [Compound 531]", "Recorded endpoint": "pIC50", "Readout number": 5.39}
{"Molecule": "CCCCn1c(NC(=O)c2ccc(Br)o2)c(C#N)c2nc3ccccc3nc21 [Compound 1001]", "Recorded endpoint": "pIC50", "Readout number": 5.97}

Take each entry in turn and give its pIC50.
1. Cc1ccc2nc(NC(=O)C3CCN(S(=O)(=O)c4cn(C(C)C)cn4)CC3)sc2c1 [Compound 542]
2. CCn1nc(-c2ccc(OC)cc2)nc2c(=O)n(C)c(=O)nc1-2 [Compound 607]
3. CN(C(=O)Cc1cccs1)c1nc2c(s1)CCc1c-2cnn1C [Compound 1103]
4. CCCN(C(=O)c1ccc(COC)o1)c1nc2c(s1)CCc1c-2cnn1C [Compound 1102]
5. COCCn1c(NC(=O)c2cccc([N+](=O)[O-])c2)c(C#N)c2nc3ccccc3nc21 [Compound 1008]
6. CCOc1ccccc1CNC(=O)C1CCN(S(=O)(=O)c2cn(C(C)C)cn2)CC1 [Compound 554]
7. COc1ccc(NC(=O)C2CCN(S(=O)(=O)c3cn(C(C)C)cn3)CC2)cc1 [Compound 521]

Marked response:
[5.30, 7.22, 5.54, 5.50, 5.98, 5.47, 5.64]

Take each entry in turn and give its pIC50.
1. CSc1cccc(NC(=O)C2CCN(S(=O)(=O)c3cn(C(C)C)cn3)CC2)c1 [Compound 515]
2. Oc1ccc(NCc2cc3ccccc3nc2O)cc1 [Compound 803]

Marked response:
1: 5.32; 2: 5.79
